Source: PubChem BioAssay (NCI)

METHOD: NCI Yeast Anticancer Drug Screen. Data for the mec2-1 strain (AID 157)
TEST_CONTEXT: S. cerevisiae mec2-1 strain, at 50.0 µM, hits give high values
About 79,000 compounds went through this panel and 15% of them were active in at least one assay; those are over-represented in the sample as a whole.
Reported growth inhibition values for the following molecules.

MOLECULE	UNIT_SPEC	growth inhibition
Cc1nc(-c2ccccc2)c(-c2ccccc2)s1	%	84.5
Clc1ccc(SC(/C=C/NNC2=NC(c3ccccc3)C(c3ccccc3)=NN2)c2ccccc2)cc1 (stereo unspecified)	%	18.6
COc1ccc(Br)c(C(=O)Sc2nnnn2-c2cccc(Cl)c2)c1	%	88.9
CC(C)(Br)C(=O)/C=C/c1ccc(Cl)c(Cl)c1	%	48.2
O=C1CSC(/C=C/c2ccccc2)N1c1ccc(-c2ccc(-n3c(-c4ccccc4)nc4ccccc4c3=O)cc2)cc1 (stereo unspecified)	%	42.5
COC(=O)c1ccc(NCC2=CC(=O)C=CC2=O)cc1O	%	93.2
CN(C)C[C@H]1CC[C@@H](CN(C)C)C1=O	%	57.3
CCCCCCCCCCCC(=O)N(C)C	%	92.7
Cc1cccc2c(C(O)CBr)cc(-c3ccc(Cl)cc3)nc12 (stereo unspecified)	%	96.1
Oc1ccc(NCn2c(=S)sc3ccccc32)cc1	%	73.8
O=C1C=CC(=O)N1c1ccc2c(c1)Cc1cc(NC(=O)C(F)(F)F)ccc1-2	%	83.5
